FYI, the data here is from patent US9168259B2.

Molecular target: KCNQ2/3 channels (Homo sapiens, UniProt O43525+O43526)
Construct: expressed in transfected cells
Sequence (O43526 whole entry): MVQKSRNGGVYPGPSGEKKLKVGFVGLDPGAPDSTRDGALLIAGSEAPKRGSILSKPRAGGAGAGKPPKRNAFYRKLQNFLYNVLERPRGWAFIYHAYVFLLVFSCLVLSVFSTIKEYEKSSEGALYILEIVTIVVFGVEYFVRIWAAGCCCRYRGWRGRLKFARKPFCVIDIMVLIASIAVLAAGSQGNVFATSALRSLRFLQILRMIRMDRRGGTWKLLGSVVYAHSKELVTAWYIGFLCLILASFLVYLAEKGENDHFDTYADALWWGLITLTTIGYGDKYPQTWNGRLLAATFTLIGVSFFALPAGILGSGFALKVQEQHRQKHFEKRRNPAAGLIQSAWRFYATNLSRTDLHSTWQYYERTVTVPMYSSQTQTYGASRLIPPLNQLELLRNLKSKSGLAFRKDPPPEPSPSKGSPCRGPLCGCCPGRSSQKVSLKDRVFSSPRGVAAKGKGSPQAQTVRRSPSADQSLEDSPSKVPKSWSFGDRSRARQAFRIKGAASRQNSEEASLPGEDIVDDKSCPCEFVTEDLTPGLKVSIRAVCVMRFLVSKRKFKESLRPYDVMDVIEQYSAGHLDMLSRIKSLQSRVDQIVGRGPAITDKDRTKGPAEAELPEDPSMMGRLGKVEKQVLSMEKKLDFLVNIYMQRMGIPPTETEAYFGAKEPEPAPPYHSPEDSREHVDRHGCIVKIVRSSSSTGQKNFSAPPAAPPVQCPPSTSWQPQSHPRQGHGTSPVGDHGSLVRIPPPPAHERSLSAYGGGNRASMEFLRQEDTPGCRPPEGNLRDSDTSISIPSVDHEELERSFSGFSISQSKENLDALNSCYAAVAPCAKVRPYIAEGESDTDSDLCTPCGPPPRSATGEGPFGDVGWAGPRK
Sequence (O43525 whole entry): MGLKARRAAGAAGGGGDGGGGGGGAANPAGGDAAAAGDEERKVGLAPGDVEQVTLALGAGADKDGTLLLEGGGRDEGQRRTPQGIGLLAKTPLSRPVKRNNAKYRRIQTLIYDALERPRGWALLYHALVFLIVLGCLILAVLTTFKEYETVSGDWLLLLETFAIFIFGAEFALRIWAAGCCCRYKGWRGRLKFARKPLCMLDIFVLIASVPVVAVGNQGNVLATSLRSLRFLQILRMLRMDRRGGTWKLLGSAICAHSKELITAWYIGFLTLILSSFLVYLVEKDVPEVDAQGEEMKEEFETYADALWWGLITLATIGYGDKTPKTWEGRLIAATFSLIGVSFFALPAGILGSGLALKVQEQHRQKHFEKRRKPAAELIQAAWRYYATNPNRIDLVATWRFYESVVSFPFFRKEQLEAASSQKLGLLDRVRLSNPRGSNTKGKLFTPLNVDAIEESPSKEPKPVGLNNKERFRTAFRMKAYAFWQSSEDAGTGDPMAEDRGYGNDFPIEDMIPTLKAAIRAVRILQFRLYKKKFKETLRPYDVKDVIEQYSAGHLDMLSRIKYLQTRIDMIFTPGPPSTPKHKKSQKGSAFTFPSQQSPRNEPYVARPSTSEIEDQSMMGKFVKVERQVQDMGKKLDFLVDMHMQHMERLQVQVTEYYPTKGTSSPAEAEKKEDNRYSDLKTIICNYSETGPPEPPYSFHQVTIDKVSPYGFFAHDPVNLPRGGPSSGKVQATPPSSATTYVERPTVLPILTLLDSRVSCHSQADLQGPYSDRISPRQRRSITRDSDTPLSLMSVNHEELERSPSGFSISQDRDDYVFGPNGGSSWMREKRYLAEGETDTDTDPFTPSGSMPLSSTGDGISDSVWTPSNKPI
Assay: Fluorescence assay using a voltage sensitive dye (fluorimetry)
Type: cell-based
Settings: CHO-K1, plateau effect relative to saturated retigabine (50 μM) = 100%; CHO-K1 cells expressing KCNQ2/3; negative values = antagonistic; read-out: Fluorimetry % efficacy (retigabine = 100%)
Consider the following compounds and their measured Emax readings.
endpoint: Emax

>  <compound>
COc1nc(N2CCOC[C@H]2C)cc(C)c1C(=O)NCc1cc(F)cc(F)c1 [Example 234]

>  <tested_target>
KCNQ2/3 channels (Homo sapiens, UniProt O43525+O43526)

>  <value_reported>
195%

$$$$
>  <compound>
CCSc1nc(N2CCOCC2)cc(C)c1C(=O)NCCCC(F)(F)F [Example 84]

>  <tested_target>
KCNQ2/3 channels (Homo sapiens, UniProt O43525+O43526)

>  <value_reported>
203%

$$$$
>  <compound>
CCSc1nc(N2CCOCC2)cc(C)c1C(=O)NCc1ccc(C#N)c(F)c1 [Example 268]

>  <tested_target>
KCNQ2/3 channels (Homo sapiens, UniProt O43525+O43526)

>  <value_reported>
142%

$$$$
>  <compound>
COc1nc(N2CCOCC2)cc(C)c1C(=O)NCc1ccc(Cl)cc1 [Example 165]

>  <tested_target>
KCNQ2/3 channels (Homo sapiens, UniProt O43525+O43526)

>  <value_reported>
135%

$$$$
>  <compound>
Cc1cc(N2CCOCC2)nc(C2CC2)c1C(=O)NCc1ccc(F)c(F)c1 [Example 332]

>  <tested_target>
KCNQ2/3 channels (Homo sapiens, UniProt O43525+O43526)

>  <value_reported>
166%

$$$$
>  <compound>
CCSc1nc(N2CCOC[C@H]2C)cc(C)c1C(=O)NCc1ccc(Cl)cc1 [Example 207]

>  <tested_target>
KCNQ2/3 channels (Homo sapiens, UniProt O43525+O43526)

>  <value_reported>
183%

$$$$
>  <compound>
CCSc1nc(N(C)CCOC)cc(C)c1C(=O)NCc1cccc(F)c1 [Example 35]

>  <tested_target>
KCNQ2/3 channels (Homo sapiens, UniProt O43525+O43526)

>  <value_reported>
153%

$$$$
>  <compound>
CCSc1nc(N2CCOCC2)cc(C)c1C(=O)NCc1ccc(C#N)cc1 [Example 145]

>  <tested_target>
KCNQ2/3 channels (Homo sapiens, UniProt O43525+O43526)

>  <value_reported>
145%

$$$$
>  <compound>
Cc1cc(N2CCOCC2)nc(N2CCCC2)c1C(=O)NCc1cccc(F)c1 [Example 24]

>  <tested_target>
KCNQ2/3 channels (Homo sapiens, UniProt O43525+O43526)

>  <value_reported>
210%

$$$$
